- system-tested: DDR1 (Homo sapiens, UniProt Q08345)
- Sequence (Q08345 19-913): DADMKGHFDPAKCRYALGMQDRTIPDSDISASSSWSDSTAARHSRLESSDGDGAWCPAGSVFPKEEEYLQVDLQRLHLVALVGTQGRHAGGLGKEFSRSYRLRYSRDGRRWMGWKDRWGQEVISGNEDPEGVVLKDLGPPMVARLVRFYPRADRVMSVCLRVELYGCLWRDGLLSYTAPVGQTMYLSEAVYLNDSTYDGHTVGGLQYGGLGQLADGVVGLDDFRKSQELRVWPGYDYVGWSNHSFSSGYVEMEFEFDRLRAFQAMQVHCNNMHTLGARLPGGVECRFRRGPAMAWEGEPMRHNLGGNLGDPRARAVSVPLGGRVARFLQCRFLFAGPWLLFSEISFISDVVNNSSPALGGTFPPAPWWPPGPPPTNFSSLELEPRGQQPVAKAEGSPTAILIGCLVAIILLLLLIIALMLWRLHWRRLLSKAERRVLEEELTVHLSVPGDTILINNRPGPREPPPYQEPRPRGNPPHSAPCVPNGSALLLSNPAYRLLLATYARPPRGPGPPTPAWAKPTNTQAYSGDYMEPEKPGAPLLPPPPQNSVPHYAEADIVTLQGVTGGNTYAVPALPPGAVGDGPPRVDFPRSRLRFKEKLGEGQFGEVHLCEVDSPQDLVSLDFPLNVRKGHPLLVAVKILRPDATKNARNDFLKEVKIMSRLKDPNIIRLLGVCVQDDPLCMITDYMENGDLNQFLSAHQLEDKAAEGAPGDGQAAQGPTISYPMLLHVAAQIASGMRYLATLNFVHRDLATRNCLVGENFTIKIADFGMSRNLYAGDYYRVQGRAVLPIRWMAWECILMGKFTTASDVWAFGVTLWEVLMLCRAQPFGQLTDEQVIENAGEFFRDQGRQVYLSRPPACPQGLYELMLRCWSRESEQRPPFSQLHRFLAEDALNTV
recorded-metric: IC50

[[record]]
molecule = "Cc1n[nH]c2ncc(CN3CCc4ccc(C(=O)Nc5cc(C(=O)NCCN(C)C)cc(C(F)(F)F)c5)cc43)cc12"
system_tested = "DDR1 (Homo sapiens, UniProt Q08345)"
measured_value = "< 25 nM"

[[record]]
molecule = "CN1CCN(Cc2cc(C(=O)Nc3ccc4c(c3)N(Cc3ccc5ncsc5c3)CC4)cc(C(F)(F)F)c2)CC1"
system_tested = "DDR1 (Homo sapiens, UniProt Q08345)"
measured_value = "25 to 50 nM"

[[record]]
molecule = "Cc1cn(-c2cc(NC(=O)c3ccc4c(c3)N(Cc3cnc5ccccn35)CC4C)cc(C(F)(F)F)c2)cn1 (stereo not drawn)"
system_tested = "DDR1 (Homo sapiens, UniProt Q08345)"
measured_value = "25 to 50 nM"

[[record]]
molecule = "O=C(Nc1cc(CN2CCCC2)cc(C(F)(F)F)c1)c1ccc2c(c1)N(Cc1cnc3cnccn13)CC2"
system_tested = "DDR1 (Homo sapiens, UniProt Q08345)"
measured_value = "25 to 50 nM"

[[record]]
molecule = "Cc1cn(-c2cc(NC(=O)c3ccc4c(c3)N(Cc3ccc5[nH]cnc5c3)CC4)cc(C(F)(F)F)c2)cn1"
system_tested = "DDR1 (Homo sapiens, UniProt Q08345)"
measured_value = "25 to 50 nM"


Please indicate recorded IC50 of O=C(Nc1cc(C(F)(F)F)ncn1)c1ccc2c(c1)N(Cc1cnc3cnccn13)CC2 measured with DDR1 (Homo sapiens, UniProt Q08345).
50 to 80 nM

Write down the reported IC50 (system: DDR1 (Homo sapiens, UniProt Q08345)) of CC(C)(C)c1cc(NC(=O)c2ccc3c(c2)N(Cc2cnc4cnccn24)CC3)on1
50 to 80 nM

Fill: IC50 (DDR1 (Homo sapiens, UniProt Q08345)) for this molecule CN1CCN(Cc2cc(NC(=O)c3ccc4c(c3)N(C(=O)c3cnc5cnccn35)CC4)cc(C(F)(F)F)c2)CC1
50 to 80 nM

State IC50 on DDR1 (Homo sapiens, UniProt Q08345). Entry: Cc1n[nH]c2ncc(CN3CCc4ccc(C(=O)Nc5cc(CN6CCN(C)CC6)cc(C(F)(F)F)c5)cc43)cc12
< 25 nM

Would you please give the reported IC50 of CC1CN(Cc2cnc3[nH]ccc3c2)c2cc(C(=O)Nc3cccc(C(F)(F)F)c3)ccc21 (stereo not drawn) with DDR1 (Homo sapiens, UniProt Q08345)?
< 25 nM

GET IC50 | system: DDR1 (Homo sapiens, UniProt Q08345) | item: O=C(Nc1cccc(OC(F)(F)F)c1)c1ccc2c(c1)N(Cc1cnc3[nH]ncc3c1)CC2
< 25 nM

GET IC50 where system = DDR1 (Homo sapiens, UniProt Q08345) and item = Cc1cn(-c2cc(NC(=O)c3ccc4c(c3)N(Cc3ccc5ccncc5c3)CC4)cc(C(F)(F)F)c2)cn1
25 to 50 nM

// output IC50; input Cc1cn(-c2cc(NC(=O)c3ccc4c(c3)N(C(=O)c3cnc5cnccn35)CC4)cc(C(F)(F)F)c2)cn1 ; system DDR1 (Homo sapiens, UniProt Q08345)
50 to 80 nM

Name the value of IC50 reported for O=C(Nc1cccc(C(F)(F)F)c1)c1ccc2c(c1)N(Cc1cnc3[nH]ncc3c1)CC2 when tested on DDR1 (Homo sapiens, UniProt Q08345).
< 25 nM

Provide IC50, tested on DDR1 (Homo sapiens, UniProt Q08345), for O=C(Nc1cc(F)cc(OC(F)(F)F)c1)c1ccc2c(c1)N(Cc1cnc3ccccn13)CC2 .
25 to 50 nM
